# Tested on: CHO
# method: Selectivity ratio of Ke for human mu opioid receptor expressed in CHO cell membrane to Ke for human kappa opioid receptor expressed in CHO cell membrane
# Type: cell-based
Lab note: cut-off is 90. Strictly less in Ratio Ke is Condition met. Exactly 90 or more is Condition not met.

Prompt line: Just wondering, is Ratio Ke of "CC(C)[C@@H](CN1CCC(c2ccncc2)CC1)NC(=O)[C@H]1Cc2ccc(O)cc2CN1" below 90?
Response line: Condition not met

Prompt line: Hello, I'm reviewing records and need to know if Ratio Ke of "CC(C)[C@@H](CN1CCC(c2ccsc2)CC1)NC(=O)[C@H]1Cc2ccc(O)cc2CN1" is below 90. Could you check?
Response line: Condition met

Prompt line: Determine if "CC(C)[C@@H](CN1CCC(C)(c2cccnc2)CC1)NC(=O)[C@H]1Cc2ccc(O)cc2CN1" shows Ratio Ke strictly lower than 90.
Response line: Condition not met

Prompt line: Say whether its Ratio Ke is strictly beneath 90. Entry: "CC(C)[C@@H](CN1CCC(c2ccccn2)CC1)NC(=O)[C@H]1Cc2ccc(O)cc2CN1"
Response line: Condition met

Prompt line: Quick check: does "CC(C)[C@@H](CN1CCC(c2ccccc2)CC1)NC(=O)[C@H]1Cc2ccc(O)cc2CN1" have Ratio Ke under 90?
Response line: Condition met

// provenance: ChEMBL document CHEMBL3813631
